# Study target: Adenosine receptor A1 (Homo sapiens)
# Sequence (whole entry): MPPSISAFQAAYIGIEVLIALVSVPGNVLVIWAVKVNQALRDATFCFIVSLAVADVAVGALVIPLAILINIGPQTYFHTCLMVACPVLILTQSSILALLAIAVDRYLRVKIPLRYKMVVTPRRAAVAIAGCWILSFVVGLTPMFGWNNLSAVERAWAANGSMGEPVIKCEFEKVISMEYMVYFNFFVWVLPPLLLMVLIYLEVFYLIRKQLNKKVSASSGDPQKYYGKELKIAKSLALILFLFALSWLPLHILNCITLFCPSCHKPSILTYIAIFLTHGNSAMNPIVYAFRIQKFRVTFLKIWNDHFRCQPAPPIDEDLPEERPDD
# Experiment notes: Modulation of human adenosine A1 receptor expressed in CHO-K1 cells assessed as stabilization of [125I]ABA-receptor-G protein ternary complex at 50 uM by dissociation kinetic assay
# Format: cell-based
Parameter: Activity

Molecule smiles	Activity
Cc1nc2ccccc2c(C(=O)O)c1N	< 5%
NC(=O)c1nnn(Cc2ccc(F)cc2)c1N	< 5%
Nc1nccnc1C(=O)NNS(=O)(=O)c1ccc(Cl)cc1	< 5%

Problem: # return recorded Activity for entry `Nc1nccnc1C(=O)N/N=C/c1ccc(Cl)cc1`
Solution: < 5%

Problem: # return recorded Activity for entry `CSc1nc(C(N)=O)c(N)s1`
Solution: < 5%

Problem: # return recorded Activity for entry `Nc1nccnc1C(=O)N/N=C/c1ccc(C(F)(F)F)cc1`
Solution: < 5%

Problem: # return recorded Activity for entry `Nc1nccnc1C(=O)N/N=C/c1ccco1`
Solution: < 5%

Problem: # return recorded Activity for entry `Nc1ccccc1C(=O)NNc1ccccc1Cl`
Solution: < 5%

Problem: # return recorded Activity for entry `NNC(=O)c1nccnc1N`
Solution: < 5%

Problem: # return recorded Activity for entry `Cc1nn(-c2ccccc2)c2nc(N)c(C(N)=O)cc12`
Solution: < 5%
